Give measured OD450 for each item. Keep answers brief.
Molecular target: T1, human MSLN-R3-his protein (human, UniProt Q13421 487-598)
T1 construct: Region 3 of human mesothelin, made in HEK293E cells, His-tagged; also called human MSLN-R3 protein; hMSLN-R3-his; not shown: His tag
T1 sequence (Q13421 495-606): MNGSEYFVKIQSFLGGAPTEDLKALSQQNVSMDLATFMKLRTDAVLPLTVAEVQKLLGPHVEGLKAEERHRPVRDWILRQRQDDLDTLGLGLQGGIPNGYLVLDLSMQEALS
Test: ELISA on coated MSLN-R3; antibody 1 nM
Numeric answer only, unit OD450 assumed.

**Q:** Dear colleague, I am looking for the recorded OD450 of the following binder: S009-F8-36.12 (antibody, human IgG1, kappa, V domains shown) VH: EVQLQQSGPELVKPGASVKISCKASGYTFTDYYMNWVKQSHGKSLEWIGDINPNNGGTSYNQKFKGKATLTVDKSSSTAYMELRSLTSEDSAVYYCASWGYGSSSRGYFDYWGQGTTLTVSS VL: QIVLSQSPAILSASPGEKVTMTCRASSSVSYMHWYQQKPGSSPKPWIYATSNLASGVPARFSGSGSGTSYSLTISRVEAEDAATYYCQQWSSNPWTFGGGTKLEIKR
**A:** 0.05

**Q:** Dear colleague, I am looking for the recorded OD450 of the following binder: S009-F8-32.3 (antibody, human IgG1, kappa, V domains shown) VH: QVQLKESGPGLVAPSQSLSITCTVSGFSLSSYAISWVRQPPGKGLEWLGVIWTGGGTNYNSALKSRLSISKDNSKSQVFLKMNSLQTDDTARFYCARNNYGRLDYAMDYWGQGTSVTVSS VL: DVVMTQTPLSLPVSLGDQASISCRSSQSLVHGNGNTYLHWYLQKPGQSPKLLIYKVSNRFSGVPDRFSGSGSGTDFTLKISRVETEDLGVYFCSQSTHVPFTFGSGTKLEIKR
**A:** 0.04

**Q:** Dear colleague, I am looking for the recorded OD450 of the following binder: S009-F8-4.5 (antibody, human IgG1, kappa, V domains shown) VH: QVQLQQPGAELVKPGASVKLSCKASGYTFTIYWMHWVKQRPGQGLEWIGMIHPNSGNTNYNEKFKSKATLTVDKSSSTAYMQLSSLTSEDSAVYYCSLIHWYFDVWGTGTTVTVSS VL: QIVLTQSPAIMSASPGEKVTMTCSASSSVSYMYWYQQKPGSSPRLLIYDTSNLASGVPVRFSGSGSGTSYSLTISRMEAEDAATYYCQQWSSYPLTFGAGTKLELKR
**A:** 0.05

**Q:** Dear colleague, I am looking for the recorded OD450 of the following binder: S009-F8-29.1 (antibody, human IgG1, kappa, V domains shown) VH: QVQLQQSGAELARPGASVKMSCKASGYTFISYTMHWVKQRPGQGLEWIGYINPSSGYTKYNQKFKDKATLTADKSSSTAYMQLNSLTSEDSAVYYCARYYSNPDYYAMDYWGQGTSVTVSS VL: QIVLTQSPAIMSASPGEKVTITCSASSSVSYMHWFQQKPGTSPKLWIYSTSNLASGVPARFSGSGSGTSYSLTISRMEAEDAATYYCQQRSSYPLTFGGGTKLELKR
**A:** 0.06

**Q:** Dear colleague, I am looking for the recorded OD450 of the following binder: S009-F8-22.23 (antibody, human IgG1, kappa, V domains shown) VH: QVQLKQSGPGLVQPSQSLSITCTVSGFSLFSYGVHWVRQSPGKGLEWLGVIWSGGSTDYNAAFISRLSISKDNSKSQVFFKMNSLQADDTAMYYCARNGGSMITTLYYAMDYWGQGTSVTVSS VL: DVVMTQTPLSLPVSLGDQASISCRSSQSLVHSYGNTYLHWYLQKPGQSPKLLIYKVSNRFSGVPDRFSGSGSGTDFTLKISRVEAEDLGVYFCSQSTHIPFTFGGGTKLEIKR
**A:** 0.04
